# Lookup of reported IC50 keyed by entry
SUBJECT_OF_TEST: PI3Kγ (Homo sapiens, UniProt P48736)
Construct: host or cells: THP-1
Sequence (P48736 whole entry): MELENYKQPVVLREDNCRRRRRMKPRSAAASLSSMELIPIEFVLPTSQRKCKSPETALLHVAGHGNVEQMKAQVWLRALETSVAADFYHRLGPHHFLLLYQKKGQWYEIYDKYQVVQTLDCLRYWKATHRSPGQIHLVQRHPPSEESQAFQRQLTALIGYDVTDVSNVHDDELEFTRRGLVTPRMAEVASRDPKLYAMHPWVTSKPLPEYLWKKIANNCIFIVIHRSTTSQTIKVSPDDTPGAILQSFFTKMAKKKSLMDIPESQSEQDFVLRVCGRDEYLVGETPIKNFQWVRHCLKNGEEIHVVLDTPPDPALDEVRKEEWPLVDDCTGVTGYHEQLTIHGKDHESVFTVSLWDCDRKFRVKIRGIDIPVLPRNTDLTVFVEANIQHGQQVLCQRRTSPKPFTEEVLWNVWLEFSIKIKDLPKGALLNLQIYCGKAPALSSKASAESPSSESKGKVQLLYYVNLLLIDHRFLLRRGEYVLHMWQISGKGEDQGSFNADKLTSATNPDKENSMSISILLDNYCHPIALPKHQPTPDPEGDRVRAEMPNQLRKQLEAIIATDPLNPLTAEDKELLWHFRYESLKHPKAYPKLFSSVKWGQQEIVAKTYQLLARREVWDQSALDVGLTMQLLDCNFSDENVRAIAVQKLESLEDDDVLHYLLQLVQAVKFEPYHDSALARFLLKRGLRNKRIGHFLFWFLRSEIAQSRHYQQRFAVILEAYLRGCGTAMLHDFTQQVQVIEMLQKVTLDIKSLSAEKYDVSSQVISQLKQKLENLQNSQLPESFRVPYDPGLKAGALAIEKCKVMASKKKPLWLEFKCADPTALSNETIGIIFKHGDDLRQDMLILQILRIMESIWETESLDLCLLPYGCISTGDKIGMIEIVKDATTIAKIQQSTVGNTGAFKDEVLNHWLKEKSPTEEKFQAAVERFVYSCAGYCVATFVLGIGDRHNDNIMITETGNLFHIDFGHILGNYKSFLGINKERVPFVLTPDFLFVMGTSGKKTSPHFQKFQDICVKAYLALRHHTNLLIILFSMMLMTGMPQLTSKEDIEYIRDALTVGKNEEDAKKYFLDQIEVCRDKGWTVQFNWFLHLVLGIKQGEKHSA
ASSAY_PROTOCOL: PI3Kγ cellular assay in THP-1 cells (AKT pS473 AlphaLISA)
Type: cell-based
CONDITION_SET: Table 1, rhMCP-1 stimulated AKT pS473, read-out: cellular potency (PI3Kγ IC50)
Experimental: Twenty microliters of serum starved THP-1 cells were added to the compound plate in serum free DMEM at a density of 9×10^6 cells per ml. […] PI3Kγ activity was evaluated as a correlate of endogenous AKT phosphorylation levels. Percentage maximum activity in each test well was calculated based on DMSO (100% activity) and positive control treated cell wells (0% activity). The potencies (IC50's) of test compounds were determined using a standard 4-parameter fit non-linear regression fit.

>  <COMPOUND>
C[C@@H](C1CC1)N1Cc2cc(-c3ccn4nc(N)c(C(=O)NC5COC5)c4n3)cc(NS(C)(=O)=O)c2C1=O [Example 78]

>  <IC50>
< 100 nM

$$$$
>  <COMPOUND>
C[C@@H](C1CC1)N1Cc2cc(-c3ccn4nc(N)c(C(=O)N[C@H]5CNC(=O)C5)c4n3)cc(OC(F)(F)F)c2C1=O [Example 28]

>  <IC50>
< 100 nM

$$$$
>  <COMPOUND>
Cc1cc(-c2ccn3nc(N)c(C(=O)N[C@H]4CNC(=O)C4)c3n2)cc2c1C(=O)N([C@@H](C)C1CC1)C2 [Example 10]

>  <IC50>
< 100 nM

$$$$
>  <COMPOUND>
C[C@@H](C1CC1)N1Cc2cc(-c3ccn4nc(N)c(C(=O)Nc5cnn(C)c5)c4n3)cc(S(C)(=O)=O)c2C1=O [Example 130]

>  <IC50>
< 100 nM

$$$$
>  <COMPOUND>
C[C@@H](C1CC1)N1Cc2cc(-c3ccn4nc(N)c(C(=O)N[C@H]5CNC(=O)C5)c4n3)cc(O[C@@H]3CCOC3)c2C1=O [Example 145]

>  <IC50>
< 100 nM

$$$$

We next turn to a different compound, shown below.
Query block: Which IC50 value belongs to C[C@@H](C1CC1)N1Cc2cc(-c3ccn4nc(N)c(C(=O)N[C@H]5CC[C@](O)(C(F)(F)F)CC5)c4n3)cc(NS(C)(=O)=O)c2C1=O [Example 90] ?
Result block: < 100 nM

----------
SUBJECT_OF_TEST: PI3Kγ (Homo sapiens)
Construct: host or cells: THP-1
ASSAY_PROTOCOL: PI3Kγ cellular assay in THP-1 cells (AKT pS473 AlphaLISA)
Type: cell-based
CONDITION_SET: Table 3, rhMCP-1 stimulated AKT pS473, read-out: cellular potency (PI3Kγ IC50)
pIC50: −log10 of the molar value.
# Lookup of reported pIC50 keyed by entry

Example cases with answers are listed next.
>  <COMPOUND_STRUCTURE_STRING>
C[C@@H](C1CC1)N1Cc2cc(-c3ccn4nc(N)c(C(=O)N[C@@H]5CCC[C@H](N(C)C)C5)c4n3)cc(C(F)(F)F)c2C1=O

>  <pIC50>
6.00 to 7.00

$$$$
>  <COMPOUND_STRUCTURE_STRING>
C[C@@H](C1CC1)N1Cc2cc(-c3ccn4nc(N)c(C(=O)Nc5cncc(F)c5)c4n3)cc(C(F)(F)F)c2C1=O

>  <pIC50>
6.00 to 7.00

$$$$
>  <COMPOUND_STRUCTURE_STRING>
C[C@@H](C1CC1)N1Cc2cc(-c3ccn4nc(N)c(C(=O)NCCNS(C)(=O)=O)c4n3)cc(C(F)(F)F)c2C1=O

>  <pIC50>
6.00 to 7.00

$$$$
>  <COMPOUND_STRUCTURE_STRING>
CC(=O)N1CC(NC(=O)c2c(N)nn3ccc(-c4cc5c(c(C(F)(F)F)c4)C(=O)N([C@@H](C)C4CC4)C5)nc23)C1

>  <pIC50>
6.00 to 7.00

$$$$
>  <COMPOUND_STRUCTURE_STRING>
Nc1nn2ccc(-c3cc4c(c(C(F)(F)F)c3)C(=O)N([C@@H](CO)C3CC3)C4)nc2c1C(=O)NC1CC1

>  <pIC50>
6.00 to 7.00

$$$$

Query block: Look up pIC50 with PI3Kγ (Homo sapiens) for this compound: C[C@@H](C1CC1)N1Cc2cc(-c3ccn4nc(N)c(C(=O)N[C@@H](CO)C5CC5)c4n3)cc(C(F)(F)F)c2C1=O
Result block: 6.00 to 7.00

Query block: Look up pIC50 with PI3Kγ (Homo sapiens) for this compound: C[C@H](O)CCNC(=O)c1c(N)nn2ccc(-c3cc4c(c(C(F)(F)F)c3)C(=O)N([C@@H](C)C3CC3)C4)nc12
Result block: 6.00 to 7.00
